Source listed as ChEMBL document CHEMBL1201862.

system: HOP-62; experiment: NCI tumour cell line growth inhibition, 48 h
The source made the active and inactive calls. Cut-off read from the data, not from the text of the source: active = GI50 up to about 1.1 µM and inactive = higher.
Classes used: active, inactive

COMPOUND	CLASSIFICATION
COC(=O)C1=C(C(=O)OC)C2(c3ccccc3)c3ccccc3C(=O)C1N2C1CCCCC1 (configuration not stated)	inactive
CC(=O)O[C@H]1C(=O)[C@@]2(C)[C@H]([C@H](OC(=O)c3cccc([N+](=O)[O-])c3)[C@]3(O)C[C@H](OC(=O)[C@H](O)[C@@H](NC(=O)c4ccccc4)c4ccccc4)C(C)=C1C3(C)C)[C@]1(OC(C)=O)CO[C@@H]1C[C@@H]2O	active
COP(=O)(OC)C(C)(C)NC(=O)NC(F)(F)F	inactive
CC1CC/C(=C\c2ccc(Cl)cc2)c2nc(N)c(C#N)c(-c3ccc(Cl)cc3)c21 (configuration not stated)	inactive
O=C(O)C(=O)Cc1ccc2c(c1)OCO2	inactive
CC(C)OP(=O)(OC(C)C)/C(=N/Nc1ccc([N+](=O)[O-])cc1)NCCO	inactive
CC(=O)C1=NN(c2ccccc2)C2(S1)SC(c1ccccc1)(c1ccccc1)c1ccccc12 (configuration not stated)	inactive
CC(C)N(C(=O)C12CC3CC(CC(C3)C1)C2)C(C)C	inactive
Cc1cccc(N(C(=O)Nc2ccc(Cl)c(Cl)c2)C2=NCC(C)S2)c1 (configuration not stated)	inactive
CC(=O)OC[C@@]12C[C@H]3C(=O)C(C)(C)C[C@H]3[C@]1(C)[C@@H](OC(C)=O)[C@]1(O)[C@H]([C@@H](OC(=O)c3ccccc3)[C@@H](C)[C@H]1OC(C)=O)[C@H]2OC(C)=O	inactive
Cc1cc(NCCCCCCCNc2cc(C)nc3cc([N+](=O)[O-])ccc23)c2ccc([N+](=O)[O-])cc2n1	inactive
C1=C\CCCCN2C[C@H]3CCCC/C=C\CCCCN4CC[C@@H]([C@H](CCCCCC/1)C4)[C@H](C3)C2	inactive
CC1(C)CCCC2(C)[C@@H]1CC[C@]13C[C@](C)(CC[C@@H]21)[C@@H]3CO (some centres not stated)	inactive
Cc1c(Cl)ccc2c(=O)c3cccc(CC(=O)O)c3oc12	inactive
C[Si]1(C)C(c2ccccc2)=CC2C(c3ccccc3)(c3ccccc3)OC21c1ccccc1 (configuration not stated)	inactive
COc1c(O)ccc2c1CN1CCc3cc4c(cc3C1C2)OCO4 (configuration not stated)	inactive
N#CCCN(CCC#N)c1ccc(/C=C2\N=C(c3cc([N+](=O)[O-])ccc3Cl)OC2=O)cc1	inactive

* * *

tested on: RPMI-8226; test: NCI tumour cell line growth inhibition, 48 h
The source made the active and inactive calls. Rule as the data show it: active = GI50 up to about 1.1 µM and inactive = higher.
PROPERTY_NAME: GI50

> print(dat)
                                   molecule       reported.value
1  O=C1N[C@@H](COc2ccc(/C=N/c3ccc(CCc4ccc(/N=C/c5ccc(OC[C@@H]6COC(=O)N6)cc5)cc4)cc3)cc2)CO1  > 100 µM (inactive)
2  CCOC1c2cc(C(C)C)c(O)c(O)c2[C@@]23CCCC(C)(C)C2C1OC3=O (some centres undefined)   40.6 µM (inactive)
3  CC/C(CC(=O)CCC(=O)Nc1ccccc1[N+](=O)[O-])=N/NC(=O)C[n+]1ccccc1  > 100 µM (inactive)
4  CN(C)CCCCN1c2ccccc2Sc2cc(N=[N+]=[N-])ccc21   2.38 µM (inactive)
5  CC1(C)OC(=S)N(c2ccccc2)C12C=Cc1ccccc1O2 (centres undefined)   24.8 µM (inactive)
6  CC1(C)CC(/C=C2/OC(=O)c3ccccc32)=C(C#N)C(=O)O1  > 100 µM (inactive)
7        COc1ccc(OC)c(CNc2ccc(C(=O)O)cc2)c1  > 100 µM (inactive)
8  O=C1CCC2(c3ccccc3)OCC([C@@H](O)c3ccccc3)N12 (some centres undefined)  > 100 µM (inactive)
9  CC1(C)O[C@H]([C@H](O)c2nnc3ccc(Cl)nn23)[C@@H]([C@H]2COC(C)(C)O2)O1  > 100 µM (inactive)
